biological target: Peroxisome proliferator-activated receptor alpha (Homo sapiens, UniProt Q07869); experiment: Partial agonist activity at PPARalpha (unknown origin) assessed as increase in PRIP/RAP250 coactivator peptide requirement by Lanthascreen TR-FRET assay
Sequence (Q07869 whole entry): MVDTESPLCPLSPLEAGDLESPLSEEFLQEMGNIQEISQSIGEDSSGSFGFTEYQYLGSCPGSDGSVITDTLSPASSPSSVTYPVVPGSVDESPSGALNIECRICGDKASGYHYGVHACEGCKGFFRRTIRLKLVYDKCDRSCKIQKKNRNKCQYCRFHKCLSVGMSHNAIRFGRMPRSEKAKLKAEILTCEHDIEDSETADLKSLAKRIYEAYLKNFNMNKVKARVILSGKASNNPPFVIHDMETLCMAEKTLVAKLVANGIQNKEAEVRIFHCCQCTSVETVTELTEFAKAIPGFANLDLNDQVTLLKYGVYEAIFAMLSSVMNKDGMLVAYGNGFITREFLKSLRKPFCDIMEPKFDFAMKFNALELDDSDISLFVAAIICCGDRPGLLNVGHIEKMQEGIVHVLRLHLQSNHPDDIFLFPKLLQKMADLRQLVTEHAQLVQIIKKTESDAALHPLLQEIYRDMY
endpoint: pEC50
Answers are plain numbers, as −log10 of the molar value.

Q. Which pEC50 value is on record for `COc1cccc2ccc(-c3cc(-c4ccc5cccc(OC)c5c4O)c4cccc(OC)c4c3O)c(O)c12` ?
A. 4.24

* * *

I'd appreciate it if you could supply pEC50 values for the items below.
test system: Mesenchymal stem cells; assay: Induction of adipogenesis in differentiated human BMMSC cells assessed as fold increase in adiponectin level in presence of IDX by ELISA; type: functional, cell-based
Numbers only, as −log10 of the molar value.

molecule: CCc1ccc(CCOc2ccc(CC3SC(=O)NC3=O)cc2)nc1 (stereo not drawn) [PIOGLITAZONE]
pEC50: 6.10
--
molecule: COc1cccc2ccc(-c3cc(-c4ccc5cccc(OC)c5c4O)c4cccc(OC)c4c3O)c(O)c12
pEC50: 4.51

# ---- query molecule ----
Q. Which pEC50 value is on record for `COc1cccc2ccc(-c3ccc(O)c4c(OC)cccc34)c(O)c12` ?
A. 4.82

* * *

Molecular target: Peroxisome proliferator-activated receptor delta (Homo sapiens, UniProt Q03181)
Sequence (Q03181 whole entry): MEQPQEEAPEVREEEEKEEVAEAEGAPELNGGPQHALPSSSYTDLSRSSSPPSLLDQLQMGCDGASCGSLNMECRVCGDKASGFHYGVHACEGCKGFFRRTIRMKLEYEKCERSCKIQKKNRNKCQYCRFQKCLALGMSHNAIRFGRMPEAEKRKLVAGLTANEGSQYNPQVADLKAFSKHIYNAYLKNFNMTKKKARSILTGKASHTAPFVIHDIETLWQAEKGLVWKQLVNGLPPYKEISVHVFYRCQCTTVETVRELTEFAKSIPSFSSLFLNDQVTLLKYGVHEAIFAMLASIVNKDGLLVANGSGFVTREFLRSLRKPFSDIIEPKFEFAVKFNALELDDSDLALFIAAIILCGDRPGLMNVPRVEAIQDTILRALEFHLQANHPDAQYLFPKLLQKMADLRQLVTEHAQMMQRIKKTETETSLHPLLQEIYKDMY
Assay: Binding affinity to PPARdelta (unknown origin) assessed as inhibition constant by Cheng-Prusoff equation analysis
endpoint: pKi
Give bare numbers, as −log10 of the molar value.

Q. Give pKi (Peroxisome proliferator-activated receptor delta (Homo sapiens, UniProt Q03181)) of the following compound: `COc1cccc2ccc(-c3cc(-c4ccc5cccc(OC)c5c4O)c4cccc(OC)c4c3O)c(O)c12`
A. 4.73

* * *

molecular target: Peroxisome proliferator-activated receptor gamma (Homo sapiens); assay: Partial agonist activity at PPARgamma (unknown origin) assessed as increase in fluorescein labeled PRIP/RAP250 coactivator peptide requirement by Lanthascreen TR-FRET assay
Sequence (P37231 whole entry): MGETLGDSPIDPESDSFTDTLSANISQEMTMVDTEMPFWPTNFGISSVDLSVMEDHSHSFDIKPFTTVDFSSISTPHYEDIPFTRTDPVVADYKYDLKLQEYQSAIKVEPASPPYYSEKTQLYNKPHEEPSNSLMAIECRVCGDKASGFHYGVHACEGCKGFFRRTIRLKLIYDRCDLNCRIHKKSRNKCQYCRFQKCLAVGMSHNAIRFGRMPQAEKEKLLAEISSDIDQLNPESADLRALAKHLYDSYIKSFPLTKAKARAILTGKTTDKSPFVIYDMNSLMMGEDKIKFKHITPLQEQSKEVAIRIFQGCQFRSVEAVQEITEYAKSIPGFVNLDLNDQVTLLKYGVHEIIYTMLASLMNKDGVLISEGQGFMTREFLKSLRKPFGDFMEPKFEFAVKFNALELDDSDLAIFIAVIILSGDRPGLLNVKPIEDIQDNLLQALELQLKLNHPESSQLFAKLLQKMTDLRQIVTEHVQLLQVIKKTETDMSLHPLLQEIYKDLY
endpoint: EC50 (µM)
Give bare numbers, in µM.

Q. Which EC50 value is on record for `COc1cccc2ccc(-c3cc(-c4ccc5cccc(OC)c5c4O)c4cccc(OC)c4c3O)c(O)c12` ?
A. 50.8

* * *

Biological target: Retinoic acid receptor RXR-alpha (Homo sapiens, UniProt P19793)
Sequence (P19793 whole entry): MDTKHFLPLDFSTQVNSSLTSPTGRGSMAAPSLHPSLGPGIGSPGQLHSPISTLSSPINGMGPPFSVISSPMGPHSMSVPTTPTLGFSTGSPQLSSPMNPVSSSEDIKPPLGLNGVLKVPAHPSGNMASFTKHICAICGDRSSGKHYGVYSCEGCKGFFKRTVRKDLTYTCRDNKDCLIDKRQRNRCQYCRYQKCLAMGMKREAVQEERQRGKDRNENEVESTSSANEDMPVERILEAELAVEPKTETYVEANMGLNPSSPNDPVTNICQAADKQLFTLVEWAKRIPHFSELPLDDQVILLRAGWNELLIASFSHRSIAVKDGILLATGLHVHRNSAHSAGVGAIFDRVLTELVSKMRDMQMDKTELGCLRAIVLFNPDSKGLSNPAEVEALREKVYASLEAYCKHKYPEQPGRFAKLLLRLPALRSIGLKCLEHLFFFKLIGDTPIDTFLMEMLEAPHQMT
Test: Agonist activity at RXRalpha-LBD (unknown origin) assessed as transactivation by measuring increase in fluorescein-labelled coactivator PGC-1alpha peptide recruitment by Lanthascreen TR-FRET
endpoint: pEC50
One number for each entry, as −log10 of the molar value.

Q. Which pEC50 value is on record for `COc1cccc2ccc(-c3cc(-c4ccc5cccc(OC)c5c4O)c4cccc(OC)c4c3O)c(O)c12` ?
A. 4.28
